Quick reference: Kd of the listed items.
Experiment: Binding affinity to HIV1 wild type [32P]-labeled RRE-2B RNA after 4 hrs by electrophoretic mobility shift assay
Parameters: species or system Human immunodeficiency virus 1
Numbered stars: 1 amine (or outer) side, 2 acyl side, 3 side chain; on linkers, the order of the positions; unused ones are H or OH. Side chains are listed from the residue outwards. Peptide text beside a SMILES is read from it. * marks the point of attachment. X2 = NCCCC[C@H](NC(=O)[C@@H](N)CCCCN)C(=O)N[C@@H](CCCCNC(=O)c1ccc(B(O)O)cc1)C(=O)*; Benzoyl(4-B(OH)2) = O=C(c1ccc(B(O)O)cc1)*; Acridin9yl = c1ccc2c(*)c3ccccc3nc2c1; εLys = N[C@@H](CCCCN[*:1])C(=O)[*:2]
Return type: number; implicit unit µM.

Examples with their reported Kd follow.
CC(C)C[C@H](NC(=O)[C@H](CCCCN)NC(=O)[C@H](CCCCNC(=O)[C@H](CCCCNC(=O)c1ccc(B(O)O)cc1)NC(=O)[C@H](CCCCN)NC(=O)[C@@H](N)CCCCN)NC(=O)[C@H](CCCCNC(=O)c1ccc(B(O)O)cc1)NC(=O)[C@H](CCCCN)NC(=O)[C@@H](N)CCCCN)C(=O)N[C@@H](CCCCNC(=O)c1ccc(B(O)O)cc1)C(=O)N[C@@H](Cc1ccc(O)cc1)C(N)=O (H-KKK(Benzoyl(4-B(OH)2))K(X2)KLK(Benzoyl(4-B(OH)2))Y-NH2)	0.12
CC(C)C[C@H](NC(=O)[C@H](CCCCNc1c2ccccc2nc2ccccc12)NC(=O)[C@H](CCCCNC(=O)[C@H](CCCCN)NC(=O)[C@H](CCCCN)NC(=O)[C@@H](N)CCCCN)NC(=O)[C@H](CCCCN)NC(=O)[C@H](CCCCN)NC(=O)[C@@H](N)CCCCN)C(=O)N[C@@H](CCCCN)C(=O)N[C@@H](Cc1ccc(O)cc1)C(N)=O (H-KKKK([Lys-Lys-Lys])K(Acridin9yl)LKY-NH2)	0.14
CC(C)C[C@H](NC(=O)[C@H](CCCCNC(=O)[C@H](CCCCN)NC(=O)[C@H](CCCCN)NC(=O)[C@@H](N)CCCCN)NC(=O)[C@H](CCCCN)NC(=O)[C@H](CCCCN)NC(=O)[C@@H](N)CCCCN)C(=O)N[C@@H](CCCCNC(=O)c1ccc(B(O)O)cc1)C(=O)N[C@@H](CCCCNC(=O)c1ccc(B(O)O)cc1)C(=O)N[C@@H](Cc1ccc(O)cc1)C(N)=O (H-KKKK([Lys-Lys-Lys])LK(Benzoyl(4-B(OH)2))K(Benzoyl(4-B(OH)2))Y-NH2)	0.28
CC(C)C[C@H](NC(=O)[C@H](CCCCN)NC(=O)[C@H](CCCCNC(=O)[C@H](CCCCN)NC(=O)[C@H](CCCCN)NC(=O)[C@@H](N)CCCCNc1c2ccccc2nc2ccccc12)NC(=O)[C@H](CCCCN)NC(=O)[C@H](CCCCN)NC(=O)[C@@H](N)CCCCNc1c2ccccc2nc2ccccc12)C(=O)N[C@@H](CCCCNC(=O)c1ccc(B(O)O)cc1)C(=O)N[C@@H](Cc1ccc(O)cc1)C(N)=O (H-K(Acridin9yl)KKK([Lys-Lys-εLys-Acridin9yl])KLK(Benzoyl(4-B(OH)2))Y-NH2)	0.06

Please examine the following record next.
stdin: I would be grateful if you could share the reported Kd for CC(C)C[C@H](NC(=O)[C@H](CCCCNC(=O)c1ccc(B(O)O)cc1)NC(=O)[C@H](CC(C)C)NC(=O)[C@H](CCCCNC(=O)[C@H](CCCCN)NC(=O)[C@H](CCCCN)NC(=O)[C@@H](N)CCCCN)NC(=O)[C@H](CCCCN)NC(=O)[C@H](CCCCN)NC(=O)[C@@H](N)CCCCN)C(=O)N[C@@H](Cc1ccc(O)cc1)C(N)=O (H-KKKK([Lys-Lys-Lys])LK(Benzoyl(4-B(OH)2))LY-NH2) .
stdout: 0.13

These measurements were taken from ChEMBL document CHEMBL3853263.
